A compilation of Ki values for Carbonic anhydrase 12 (Homo sapiens, UniProt O43570) from the published literature.

Worked set:
compound: CC(F)(Cl)CNS(=O)(=O)c1ccc(N)cc1 (stereo not given)
measured_target: Carbonic anhydrase 12 (Homo sapiens, UniProt O43570)
Sequence (O43570 whole entry): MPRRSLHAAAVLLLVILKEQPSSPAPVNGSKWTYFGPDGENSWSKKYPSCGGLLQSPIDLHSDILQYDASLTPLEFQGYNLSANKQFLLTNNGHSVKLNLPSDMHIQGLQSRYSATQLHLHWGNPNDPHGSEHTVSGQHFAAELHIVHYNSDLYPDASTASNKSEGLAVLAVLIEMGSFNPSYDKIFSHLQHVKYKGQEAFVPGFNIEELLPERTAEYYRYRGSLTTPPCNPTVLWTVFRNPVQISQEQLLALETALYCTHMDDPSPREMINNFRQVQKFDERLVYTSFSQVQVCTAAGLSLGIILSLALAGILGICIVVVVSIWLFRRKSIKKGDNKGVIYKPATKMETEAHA
Ki: 1520 nM
--
compound: O=C(Cc1ccccc1Br)Oc1ccc2c(c1)OS(=O)(=O)CC2
measured_target: Carbonic anhydrase 12 (Homo sapiens, UniProt O43570)
Ki: > 10000 nM
--
compound: O=S1(=O)CCc2ccc(O)cc2O1
measured_target: Carbonic anhydrase 12 (Homo sapiens, UniProt O43570)
Ki: > 10000 nM

For every item in the list below, what is its measured Ki?
1. COc1ccc(NC(=O)Nc2ccc(S(N)(=O)=O)cc2)c(C)c1
2. NS(=O)(=O)c1ccc(-c2ccc(-c3ccc(Br)cc3)cc2)cc1
3. NS(=O)(=O)c1ccc(CCNc2nc(Cl)nc(NCCC(=O)O)n2)cc1
4. CCC(Sc1nc(-c2cccc(OC)c2)c(C#N)c(=O)[nH]1)C(=O)Nc1ccc(S(N)(=O)=O)cc1 (stereo not given)
5. CC(=O)OC[C@H]1OC(NS(=O)(=O)c2ccc(O)cc2)C(OC(C)=O)=C[C@@H]1OC(C)=O (stereo not given in full)
6. COc1ccc(-c2cs/c(=N\c3ccc(S(N)(=O)=O)cc3)n2-c2ccccc2)cc1
7. NS(=O)(=O)c1ccc(OCc2ccc([N+](=O)[O-])cc2)cc1
8. O=c1oc2c(O)c(O)cc3c(=O)oc4c(O)c(O)cc1c4c23

1. 6 nM
2. 54.2 nM
3. 3.5 nM
4. 24 nM
5. > 50000 nM
6. 840 nM
7. 0.72 nM
8. 8150 nM

State the recorded Ki for every item in the following list.
1. CC(=O)N1N=C(c2cccc(OS(N)(=O)=O)c2)CC1c1cccc2ccccc12 (stereo not given)
2. CC(=O)OC[C@H]1O[C@@H]([Se]c2ccc(NC(=S)Nc3ccc(S(N)(=O)=O)cc3)cc2)[C@H](OC(C)=O)[C@@H](OC(C)=O)[C@@H]1OC(C)=O
3. CC(Sc1nc(-c2ccc(Cl)cc2)c(C#N)c(=O)[nH]1)C(=O)Nc1ccc(S(N)(=O)=O)cc1 (stereo not given)
4. NS(=O)(=O)c1ccc(C(=O)N2CCc3cc(O)c(O)cc3C2c2ccc(Cl)cc2)cc1 (racemic)
5. NS(=O)(=O)c1ccc(NC(=O)Cc2ccccc2)cc1
6. CCOc1ccc(S(N)(=O)=O)cc1-c1nnc2c(n1)c(C)nn2C

1. 463 nM
2. 55.8 nM
3. 9.2 nM
4. 7.6 nM
5. 71 nM
6. 5.5 nM

List Ki for every entry below, keeping the order given.
1. COc1ccc(C2CC(c3ccc(OS(N)(=O)=O)cc3)=NN2C(C)=O)cc1 (stereo not given)
2. Cc1c2c(=O)oc3ccc([N+](=O)[O-])cc3c2nn1-c1ccccc1
3. Nc1c(F)cc(S(=O)(=O)Nc2nnc(S(N)(=O)=O)s2)cc1Cl

42.6 nM
360 nM
13 nM

====

// cross-source set; read-out = Ki; system = Carbonic anhydrase 12 (Homo sapiens)
Threshold 70 nM. Ki below it: T. Ki at it or above: F.

Sample answers from the record:
compound: O=C1NS(=O)(=O)c2ccccc21
class: F

compound: O=C1c2ccccc2S(=O)(=O)N1Cc1c(F)cccc1F
class: F

compound: CC1CCCC2(C1)NC(=O)N(CC(=O)Nc1ccc(S(N)(=O)=O)cc1)C2=O (configuration not stated)
class: T

compound: Cc1cc(S(N)(=O)=O)c(S(=O)(=O)CC(=O)NN)cc1Cl
class: F

compound: COC(=O)[C@H]1O[C@@H](SNCCc2ccc(S(N)(=O)=O)cc2)[C@H](OC(C)=O)[C@@H](OC(C)=O)[C@H]1OC(C)=O
class: T

compound: O=C(NCCNCCCNCCNC(=O)C(F)(F)F)C(F)(F)F
class: F

compound: CCCCCCN(CCCCCC)CC(=O)N(CCc1ccc(S(N)(=O)=O)cc1)Cc1ccccc1
class: F

compound: CCOc1ccc(S(=O)(=O)N[C@@H](C)CC)cc1-c1nnc2c(n1)c(C)nn2-c1ccc(C)cc1
class: F

Is it true that Ki reported for Cn1cc(S(N)(=O)=O)c2cc(NC(=O)c3cc(-c4ccccc4)nc4ccccc34)ccc21 is less than 70 nM? F

Is Ki strictly under 70 nM for the entry CC1=NN(c2ccccc2Cl)C(=O)/C1=N/Nc1ccc(S(N)(=O)=O)cc1 ? F

Threshold test, Ki < 70 nM: CC(=O)OC[C@H]1O[C@@H](O[C@H]2[C@H](OC(C)=O)[C@@H](OC(C)=O)[C@H](NC(=S)Nc3ccc(S(N)(=O)=O)cc3)O[C@@H]2COC(C)=O)[C@H](OC(C)=O)[C@@H](OC(C)=O)[C@H]1OC(C)=O T

Is it true that Ki reported for COC(=O)c1ccc(Cc2ccc(-c3ccc(S(N)(=O)=O)cc3)cc2)cc1 is less than 70 nM? F

Consider CC1=NN(c2ccccc2Cl)C(=O)/C1=N/Nc1cccc(S(N)(=O)=O)c1 . Does its Ki lie strictly below 70 nM? F

Does the reported Ki of O=[N+]([O-])c1ccccc1CNS(=O)(=O)c1ccccc1CO stay below 70 nM? F

Consider the compound Nc1nc(-c2ccc(NC(=O)c3ccc(C(=O)NO)cc3)cc2)cn2c(=O)n(-c3ccccc3)nc12 . Is its Ki strictly less than 70 nM? F

Check if Ki falls below 70 nM for Nc1c(C(=O)N/N=C/c2ccc(O)cc2)cnn1-c1ccc(S(N)(=O)=O)cc1 . T

Consider the compound O=S(=O)(N[C@H]1C=C[C@@H](O)[C@@H](CO)O1)c1ccc(O)cc1 . Is its Ki strictly less than 70 nM? F

Confirm or reject: Ki of CC1=NN(c2ccc(C)cc2)C(=O)/C1=N/Nc1ccc(S(N)(=O)=O)cc1 lies strictly below 70 nM T

Consider the compound O=C(NO)[C@H]1C[C@H](NS(=O)(=O)c2ccc(-c3ccccc3)cc2)CN1S(=O)(=O)c1ccc([N+](=O)[O-])cc1 . Is its Ki strictly less than 70 nM? F

Dear reviewer, please state whether O=C(O)c1c(O)cccc1O has Ki strictly beneath 70 nM. F
